Below: a set of entries, each annotated with reported pIC50.
tested on: nicotinic cholinergic receptor (Rattus norvegicus, UniProt P09483+P12390)
Construct: A membrane fraction from rat brain cortex; tissue Harlan Laboratories
experiment: Competition with [3H](-)-cytisine for binding to rat cortex (brain) receptors (Tables 7, 8)
run parameters: Table 8, [3H](-)-cytisine, rat brain cortex membranes; read-out: Nicotine Receptor IC50
Please treat pIC50 as minus the base-10 logarithm of the molar concentration.

Here is how some molecules turned out for pIC50.
molecule: CN1C2CCC1C(c1ccc3ccccc3n1)C2 (stereo not shown)
pIC50: 7.11

molecule: Cc1cc(C2CC3CCC2N3C)on1 (stereo not shown)
pIC50: 7.62

molecule: c1ccc2nc(C3CC4CCC3N4)ccc2c1 (stereo not shown)
pIC50: 8.15

Let us move to another entry and its pIC50.
Give the reported value of pIC50 for this record: Cc1cc(C2CC3CCC2N3)on1 (stereo not shown)
6.20
